Reference for the values: patent US20250026721A1

target: PIK3CA (Homo sapiens); construct: endogenous in cells; assay: In vitro ELISA target engagement assay for PIK3CA in Jurkat cellular lysate (competition with PIK3CA Biotin Probe); settings: 1 hour at rt, then 500 nM PIK3CA Biotin Probe, read-out: Elisa Target Engagement Assay (TE50)
Sequence (P42336 whole entry): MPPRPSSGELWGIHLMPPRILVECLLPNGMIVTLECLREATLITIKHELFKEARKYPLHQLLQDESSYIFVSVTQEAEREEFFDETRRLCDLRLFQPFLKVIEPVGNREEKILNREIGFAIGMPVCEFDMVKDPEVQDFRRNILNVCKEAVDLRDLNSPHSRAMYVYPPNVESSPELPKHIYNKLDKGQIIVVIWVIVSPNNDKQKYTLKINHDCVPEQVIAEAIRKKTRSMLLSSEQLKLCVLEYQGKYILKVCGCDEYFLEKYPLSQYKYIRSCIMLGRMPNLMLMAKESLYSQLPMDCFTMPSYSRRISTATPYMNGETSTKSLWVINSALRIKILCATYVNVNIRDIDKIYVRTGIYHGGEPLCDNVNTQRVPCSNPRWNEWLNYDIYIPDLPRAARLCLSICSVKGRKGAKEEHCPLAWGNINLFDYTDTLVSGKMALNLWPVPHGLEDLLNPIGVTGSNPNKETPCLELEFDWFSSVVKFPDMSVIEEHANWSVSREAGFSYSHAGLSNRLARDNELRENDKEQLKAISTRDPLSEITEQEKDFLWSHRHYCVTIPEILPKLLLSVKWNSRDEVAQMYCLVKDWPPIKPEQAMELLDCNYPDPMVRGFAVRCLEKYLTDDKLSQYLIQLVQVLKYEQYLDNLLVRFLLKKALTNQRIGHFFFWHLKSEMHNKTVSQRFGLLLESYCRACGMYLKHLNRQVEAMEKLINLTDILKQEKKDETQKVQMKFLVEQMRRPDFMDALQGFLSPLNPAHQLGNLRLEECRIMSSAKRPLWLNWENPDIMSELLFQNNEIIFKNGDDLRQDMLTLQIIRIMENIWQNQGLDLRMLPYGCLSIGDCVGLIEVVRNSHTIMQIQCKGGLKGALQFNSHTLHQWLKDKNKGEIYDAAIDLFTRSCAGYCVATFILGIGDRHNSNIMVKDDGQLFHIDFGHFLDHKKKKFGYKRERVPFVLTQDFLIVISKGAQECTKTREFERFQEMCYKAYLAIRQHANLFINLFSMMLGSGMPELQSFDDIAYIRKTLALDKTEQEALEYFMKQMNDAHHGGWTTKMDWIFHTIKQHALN
Sequence (P27986 whole entry partner): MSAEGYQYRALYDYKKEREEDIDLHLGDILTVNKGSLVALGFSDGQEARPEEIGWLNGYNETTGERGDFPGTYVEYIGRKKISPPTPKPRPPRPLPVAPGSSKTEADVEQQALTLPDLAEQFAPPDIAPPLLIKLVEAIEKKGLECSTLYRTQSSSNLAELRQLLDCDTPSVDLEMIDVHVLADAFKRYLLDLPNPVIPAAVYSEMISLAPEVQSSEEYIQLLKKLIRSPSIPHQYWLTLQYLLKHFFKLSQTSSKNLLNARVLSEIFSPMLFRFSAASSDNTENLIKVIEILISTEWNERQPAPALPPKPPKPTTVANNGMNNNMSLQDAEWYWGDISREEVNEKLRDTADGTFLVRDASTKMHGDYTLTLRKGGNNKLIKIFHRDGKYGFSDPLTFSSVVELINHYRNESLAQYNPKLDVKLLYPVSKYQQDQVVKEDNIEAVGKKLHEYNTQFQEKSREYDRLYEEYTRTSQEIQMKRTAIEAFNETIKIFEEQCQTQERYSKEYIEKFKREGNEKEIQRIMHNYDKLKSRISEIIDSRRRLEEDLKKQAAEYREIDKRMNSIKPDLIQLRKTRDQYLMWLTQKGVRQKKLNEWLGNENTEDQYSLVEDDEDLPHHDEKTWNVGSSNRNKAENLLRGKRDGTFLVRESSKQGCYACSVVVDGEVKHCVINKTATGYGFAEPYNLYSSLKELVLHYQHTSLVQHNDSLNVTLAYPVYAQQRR
ASSAY_READOUT: pIC50
Numbers only, as −log10 of the molar value.

Please review the following examples before continuing.
INPUT: Could you share which pIC50 value was measured for CCc1ccc(S(=O)(=O)N2CCC(F)(C(=O)N[C@H](C)/C=C\S(C)(=O)=O)CC2)c(-c2ccccc2Cl)c1 ?
OUTPUT: 6.49

INPUT: Could you share which pIC50 value was measured for COc1ccc(S(=O)(=O)N2CC[C@](F)(C(=O)N[C@H](C)/C=C\S(C)(=O)=O)CC2(C)C)c(-c2ccccc2Cl)c1 (single isomer, unassigned) ?
OUTPUT: 6.51

INPUT: Could you share which pIC50 value was measured for COC[C@@H](/C=C\S(C)(=O)=O)NC(=O)C1(F)CCN(S(=O)(=O)c2ccc(Br)cc2-c2ccccc2Cl)CC1 ?
OUTPUT: 7.38

I have 2 compounds here; please give me pIC50 for each one.
1. COc1ccc(S(=O)(=O)N2CCC(F)(C(=O)N[C@H](C)/C=C\S(C)(=O)=O)CC2)c(-c2ccccc2Cl)c1Cl
2. C[C@H](/C=C/C(=O)N1CC(F)(F)C1)NC(=O)[C@@]1(F)CCCN(C(=O)c2ccc(C(F)(F)F)cc2-c2c(F)cccc2Cl)CC1

OUTPUT:
1: 6.03; 2: 6.21

I have 4 compounds here; please give me pIC50 for each one.
1. C[C@@H]1C[C@](F)(C(=O)NC/C=C\C(=O)N2CC(F)(F)C2)CCN1C(=O)[C@H]1COC(C)(C)C[C@@H]1c1ccccc1Cl (single isomer, unassigned)
2. CCOC(=O)N1C[C@H](C(=O)N2CCC(F)(C(=O)N[C@H](C)/C=C\S(C)(=O)=O)CC2)[C@H](c2ccccc2Cl)C1
3. C[C@H](/C=C\S(C)(=O)=O)NC(=O)C1(F)CCN(S(=O)(=O)c2ccc(N3CCCC3=O)cc2-c2ccccc2Cl)CC1
4. C[C@@H](/C=C\C(=O)N1CC(F)(F)C1)NC(=O)C1(F)CCN(S(=O)(=O)c2ccc(Br)cc2-c2ccccc2Cl)CC1

OUTPUT:
[6.09, 6.17, 6.19, 6.08]

I have 4 compounds here; please give me pIC50 for each one.
1. CC(C)OC(=O)N1C[C@H](c2ccccc2Cl)[C@H](C(=O)N2CCC(F)(C(=O)N[C@H](C)/C=C\S(C)(=O)=O)CC2)C1
2. C[C@H](/C=C\S(C)(=O)=O)NC(=O)[C@@]1(F)CCCN(C(=O)[C@H]2CN(CC(F)(F)Cl)C[C@H]2c2ccccc2Cl)CC1
3. C[C@H](/C=C\S(C)(=O)=O)NC(=O)C1(F)CCN(S(=O)(=O)c2cnc(C(F)(F)F)cc2-c2cccc(F)c2Cl)CC1
4. C[C@H](/C=C\S(C)(=O)=O)NC(=O)C1(F)CCN(S(=O)(=O)c2ccc(N3CCCC3)cc2-c2ccccc2)CC1

OUTPUT:
1. 6.05
2. 6.72
3. 6.62
4. 6.08
